- experimentalTarget: BRD9 bromodomain (Homo sapiens (Human), UniProt Q9H8M2)
- Sequence (Q9H8M2 133-239): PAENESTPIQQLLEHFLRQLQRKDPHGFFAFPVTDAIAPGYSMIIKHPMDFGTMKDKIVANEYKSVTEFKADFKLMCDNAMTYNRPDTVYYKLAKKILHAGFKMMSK
- assayOverview: BRD9 bromodomain TR-FRET competition binding assay
pIC50: −log10 of the molar value.
measuredParameter: pIC50

For orientation, consider the following solved cases.
[
  {
    "compound": "CCCCNC(=O)N1CCc2c(-c3cc(OC)c(CN(C)C)c(OC)c3)cn(C)c(=O)c2C1",
    "experimentalTarget": "BRD9 bromodomain (Homo sapiens (Human), UniProt Q9H8M2)",
    "result": "> 8.00"
  },
  {
    "compound": "COc1cc(-c2cn(C)c(=O)c3c2CCN(C(=O)NCCCCCCCCNc2cccc4c2CN(C2CCC(=O)NC2=O)C4=O)C3)cc(OC)c1CN(C)C (stereo not drawn)",
    "experimentalTarget": "BRD9 bromodomain (Homo sapiens (Human), UniProt Q9H8M2)",
    "result": "> 8.00"
  }
]

Value lookup for pIC50; key = COc1cc(-c2cn(C)c(=O)c3c2CNC(C(=O)O)C3)cc(OC)c1CN(C)C (stereo not drawn)
< 6.00

Would you mind doing COc1cc(-c2cn(C)c(=O)c3c2CCN(C(=O)CCCCCCCCNc2cccc4c2C(=O)N(C2CCC(=O)NC2=O)C4=O)C3)cc(OC)c1CN(C)C (stereo not drawn) as well?
< 6.00

Would you mind doing COc1cc(-c2cn(C)c(=O)c3c2CN(C(=O)NCCOCCOCCNc2cccc4c2C(=O)N(C2CCC(=O)NC2=O)C4=O)CC3)cc(OC)c1CN(C)C (stereo not drawn) as well?
< 7.00

Would you mind doing COc1cc(-c2cn(C)c(=O)c3c2CCN(C(=O)NCCOCCOCCOCC(=O)N[C@@H](C(=O)N2C[C@@H](O)C[C@@H]2C(=O)NCc2ccc(-c4scnc4C)cc2)C(C)(C)C)C3)cc(OC)c1CN(C)C as well?
< 8.00
